The values you see were collected from patent US12492188B2.

ASSAY_TARGET: human TLR7 (Homo sapiens, UniProt Q9NYK1)
Sequence (Q9NYK1 27-1049): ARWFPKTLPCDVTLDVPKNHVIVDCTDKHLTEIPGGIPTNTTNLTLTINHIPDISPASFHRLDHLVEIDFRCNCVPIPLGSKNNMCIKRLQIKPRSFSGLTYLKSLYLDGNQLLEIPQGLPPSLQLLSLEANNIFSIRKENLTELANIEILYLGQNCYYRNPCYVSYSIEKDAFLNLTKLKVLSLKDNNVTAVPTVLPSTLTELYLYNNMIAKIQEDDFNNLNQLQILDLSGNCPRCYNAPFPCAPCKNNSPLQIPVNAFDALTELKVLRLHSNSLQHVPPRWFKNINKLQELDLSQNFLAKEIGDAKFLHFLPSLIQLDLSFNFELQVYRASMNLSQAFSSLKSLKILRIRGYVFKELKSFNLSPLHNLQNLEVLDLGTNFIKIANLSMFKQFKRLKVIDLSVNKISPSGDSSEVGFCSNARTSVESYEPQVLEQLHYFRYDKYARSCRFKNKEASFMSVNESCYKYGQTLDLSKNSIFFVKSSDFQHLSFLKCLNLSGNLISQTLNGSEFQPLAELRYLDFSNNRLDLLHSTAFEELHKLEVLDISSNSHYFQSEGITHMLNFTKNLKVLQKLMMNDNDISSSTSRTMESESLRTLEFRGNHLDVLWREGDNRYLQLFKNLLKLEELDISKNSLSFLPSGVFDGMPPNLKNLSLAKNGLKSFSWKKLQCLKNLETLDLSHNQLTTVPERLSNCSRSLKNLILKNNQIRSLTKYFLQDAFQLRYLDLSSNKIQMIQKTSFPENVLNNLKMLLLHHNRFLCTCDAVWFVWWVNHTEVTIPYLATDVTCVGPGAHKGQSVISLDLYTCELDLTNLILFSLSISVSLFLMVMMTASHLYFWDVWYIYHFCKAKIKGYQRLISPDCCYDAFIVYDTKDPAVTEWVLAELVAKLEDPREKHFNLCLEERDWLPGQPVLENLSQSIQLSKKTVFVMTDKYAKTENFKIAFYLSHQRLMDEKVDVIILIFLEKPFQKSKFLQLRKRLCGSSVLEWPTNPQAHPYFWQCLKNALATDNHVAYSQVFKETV
ASSAY_EXPLANATION: TLR7 inhibition reporter assay (HEK-Blue cells, secreted embryonic alkaline phosphatase reporter)
SETTINGS: HEK-Blue cells overexpressing human TLR7, stimulated with gardiquimod 7.5 μM; read-out: TLR 7 IC50
pIC50: −log10 of the molar value.
Quick reference: pIC50 of the listed items.

| COMPOUND | OP | pIC50 |
| --- | --- | --- |
| CC(C)CN1CCCC(N2CCC(c3ccc4nc(-c5ccc(S(C)(=O)=O)cc5)n(C)c4c3F)CC2)CC1 (centres unmarked) [Example 311] | < | 4.30 |
| Cc1cc(C2CCN(C3CCCN(C4COC4)CC3)CC2)cc2c1nc(-c1ccc(S(C)(=O)=O)cc1)n2C (centres unmarked) [Example 305] | = | 5.07 |
| COc1ccc(-c2nc3c(C)cc(C4CCN(C5CCN(C(=O)C(C)C)CC5)CC4)cc3[nH]2)cc1OC | < | 4.30 |
| Cn1c(-c2ccc(S(C)(=O)=O)cc2)nc2cc(C3CCN(C4CC5CCC(C4)N5CC4CC4)CC3)cc(F)c21 (centres unmarked) [Example 217] | = | 4.89 |
| CC(C)N1C2CCC1CC(N1CCC(c3cc4c(cc3F)nc(-c3ccc(S(C)(=O)=O)cc3)n4C)CC1)C2 (single isomer, unassigned) [Example 97] | = | 4.33 |
| COCCN1CCCC(N2CCC(c3cc(F)c4nc(-c5ccc(S(C)(=O)=O)cc5)n(C)c4c3)CC2)CC1 (single isomer, unassigned) [Example 303] | = | 5.38 |
| Cc1cc(C2CCN(C3CCN(CC4CC4)CC3)CC2)cc2c1nc(-c1ccc(S(C)(=O)=O)c(F)c1)n2C | = | 5.42 |
| Cc1cc(-c2cccc(CN3CCC(N4CCCC4)CC3)c2)cc2c1nc(-c1ccc(S(C)(=O)=O)cc1)n2C1CC1 | = | 6.10 |
| Cn1c(-c2ccc(S(C)(=O)=O)cc2)nc2ccc(C3CCN(C4CCCN(C5CCC5)CC4)CC3)c(F)c21 (centres unmarked) [Example 312] | < | 4.30 |
| CC(C)CN1C2CCC1CC(N1CCC(c3cc(F)c4c(c3)nc(-c3ccc(S(C)(=O)=O)cc3)n4C)CC1)C2 (centres unmarked) [Example 209] | = | 4.78 |
| COCCN1CCCC(N2CCC(c3cc(C)c4nc(-c5ccc(S(C)(=O)=O)cc5)n(C)c4c3)CC2)CC1 (single isomer, unassigned) [Example 309] | = | 5.72 |
| Cc1cc(C2CCN(C3CCN(C4CC4)CC3)CC2)cc2c1nc(-c1ccc(S(C)(=O)=O)c(F)c1)n2C | = | 4.90 |
| COCCN1CCC(N2CCC(c3cc(F)c4nc(-c5ccc(S(C)(=O)=O)cc5)n(C)c4c3)CC2)CC1 | = | 5.15 |
| COc1ccc(-c2nc3c(C)cc(C4CCN(C5CC6(C5)CN(C5CCC5)C6)CC4)cc3n2C)cc1OC | = | 5.24 |

* * *

ASSAY_TARGET: human TLR9 (Homo sapiens)
Construct: host or cells: HEK-Blue cells (HEK293-derived reporter line)
Sequence (Q9NR96 26-1032): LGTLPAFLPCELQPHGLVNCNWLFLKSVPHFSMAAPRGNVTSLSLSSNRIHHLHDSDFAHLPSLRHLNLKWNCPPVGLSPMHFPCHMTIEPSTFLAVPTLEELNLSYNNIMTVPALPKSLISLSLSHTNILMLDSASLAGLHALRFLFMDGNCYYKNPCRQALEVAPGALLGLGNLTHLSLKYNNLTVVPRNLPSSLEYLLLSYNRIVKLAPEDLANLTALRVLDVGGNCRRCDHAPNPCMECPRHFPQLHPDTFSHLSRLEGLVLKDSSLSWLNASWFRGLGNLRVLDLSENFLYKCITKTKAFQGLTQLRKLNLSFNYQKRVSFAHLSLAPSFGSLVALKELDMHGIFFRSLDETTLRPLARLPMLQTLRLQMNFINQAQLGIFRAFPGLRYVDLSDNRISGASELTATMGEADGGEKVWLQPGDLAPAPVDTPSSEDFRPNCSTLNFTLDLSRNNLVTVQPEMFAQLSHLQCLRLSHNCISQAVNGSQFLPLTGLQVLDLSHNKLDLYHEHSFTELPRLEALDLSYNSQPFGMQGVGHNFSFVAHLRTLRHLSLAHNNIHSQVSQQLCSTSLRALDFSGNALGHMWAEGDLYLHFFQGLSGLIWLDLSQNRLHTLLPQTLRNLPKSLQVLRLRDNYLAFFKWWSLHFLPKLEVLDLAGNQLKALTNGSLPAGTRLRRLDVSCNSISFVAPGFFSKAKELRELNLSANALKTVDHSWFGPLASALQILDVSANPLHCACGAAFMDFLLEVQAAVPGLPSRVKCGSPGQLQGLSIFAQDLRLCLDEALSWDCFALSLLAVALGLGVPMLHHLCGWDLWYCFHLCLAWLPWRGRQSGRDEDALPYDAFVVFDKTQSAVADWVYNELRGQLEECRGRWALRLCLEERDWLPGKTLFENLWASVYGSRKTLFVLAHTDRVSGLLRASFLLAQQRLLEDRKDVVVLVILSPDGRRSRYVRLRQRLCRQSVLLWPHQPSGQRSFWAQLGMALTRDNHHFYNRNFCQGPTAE
ASSAY_EXPLANATION: TLR9 inhibition reporter assay (HEK-Blue cells, secreted embryonic alkaline phosphatase reporter)
Type: cell-based
SETTINGS: HEK-Blue human TLR9 reporter cells
Excerpt: TLR7/8/9 Inhibition Reporter Assays HEK-Blue™-cells (Invivogen) overexpressing human TLR7, TLR8 or TLR9 receptors were used for screening inhibitors of these receptors using an inducible SLAP (secreted embryonic alkaline phosphatase) reporter gene under the control of the […] minimal promoter fused to five NF-κB and AP-1-binding sites. […]
Rule: IC50 below 80 nM gives Y. Equal to or above 80 nM gives N.

| COMPOUND | CLASS_NAME |
| --- | --- |
| Cn1c(-c2ccc(S(C)(=O)=O)cc2)nc2c(F)cc(C3CCN(C4CCCN(C5CCOCC5)CC4)CC3)cc21 (stereo not drawn) [Example 300] | Y |
| COc1cc(-c2nc3c(C)cc(C4CCN(C5CC6CCC(C5)N6CC(C)C)CC4)cc3[nH]2)cn2ncnc12 (stereo not drawn) [Example 359] | Y |
| Cn1c(-c2ccc(S(C)(=O)=O)cc2)nc2c(F)cc(C3CCN(C4CCCN(CC5CC5)CC4)CC3)cc21 (single isomer, unassigned) [Example 299] | Y |
| Cc1cc(C2CCN(C3CCCN(C4CCOCC4)CC3)CC2)cc2c1nc(-c1ccc(S(C)(=O)=O)cc1)n2C (single isomer, unassigned) [Example 306] | Y |
| Cc1cc(C2CCN(C3CC4CCC(C3)N4C(C)C)CC2)cc2c1nc(-c1ccc(S(C)(=O)=O)c(F)c1)n2C (stereo not drawn) [Example 344] | N |
| Cn1c(-c2ccc(S(C)(=O)=O)cc2)nc2c(F)cc(C3CCN(C4CC5CCC(C4)N5C4CCC4)CC3)cc21 (single isomer, unassigned) [Example 292] | N |
